Recorded pEC50 values for a group of compounds are listed next.
# study-system: G-protein coupled bile acid receptor 1 (Mus musculus)
# assay: Agonist activity at mouse TGR5 receptor expressed in HEK293 cells cotransfected with pCMV AC6-TGR5 assessed as activation of intracellular cAMP production incubated overnight by luciferase reporter gene assay
# Format: functional, cell-based
# condition-label: read-out: EC50
Scale explanation: pEC50 corresponds to minus log10 of a concentration expressed in moles per litre.

Here are 2 compounds together with their reported answers.
[[record]]
compound = "COCCN1C(=O)CC(c2ccc(Cl)cc2)C(C(=O)OCc2ccc(F)cc2)=C1C (centres undefined)"
endpoint_result = 6.30

[[record]]
compound = "C#CCN1C(=O)CC(c2ccc(Cl)cc2)C(C(=O)OCc2ccccc2)=C1C (centres undefined)"
endpoint_result = 6.00


# COCCN1C(=O)CC(c2ccc(Cl)cc2)C(C(=O)OCc2ccccc2OC(F)(F)F)=C1C (centres undefined) with G-protein coupled bile acid receptor 1 (Mus musculus): pEC50 is 5.92

* * *

Recorded EC50 values for a group of compounds are listed next.
# study-system: G-protein coupled bile acid receptor 1 (Homo sapiens, UniProt Q8TDU6)
# Sequence (Q8TDU6 whole entry): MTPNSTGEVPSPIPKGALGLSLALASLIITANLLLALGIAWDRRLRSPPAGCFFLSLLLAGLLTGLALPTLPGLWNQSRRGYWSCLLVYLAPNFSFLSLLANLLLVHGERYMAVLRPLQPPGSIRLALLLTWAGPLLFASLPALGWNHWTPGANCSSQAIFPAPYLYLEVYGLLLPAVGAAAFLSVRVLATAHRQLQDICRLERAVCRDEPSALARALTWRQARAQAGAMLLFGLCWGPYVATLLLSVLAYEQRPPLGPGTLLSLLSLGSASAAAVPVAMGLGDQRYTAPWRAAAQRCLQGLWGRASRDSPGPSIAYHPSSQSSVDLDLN
# assay: Agonist activity at human TGR5 receptor expressed in HEK293 cells cotransfected with pCMV tag4b-TGR5 assessed as activation of intracellular cAMP production incubated overnight by luciferase reporter gene assay
# Type: functional, cell-based
# condition-label: read-out: EC50
Return type: number; implicit unit nM.

[[record]]
compound = "COc1ccccc1COC(=O)C1=C(C)N(CC2CCCO2)C(=O)CC1c1ccc(Cl)nc1 (racemic; 77)"
study_system = "G-protein coupled bile acid receptor 1 (Homo sapiens, UniProt Q8TDU6)"
endpoint_result = 2

[[record]]
compound = "COCCN1C(=O)CC(c2ccc(Cl)cc2)C(C(=O)OCc2ccc(F)cc2)=C1C (stereo not given)"
study_system = "G-protein coupled bile acid receptor 1 (Homo sapiens, UniProt Q8TDU6)"
endpoint_result = 300

[[record]]
compound = "CC1=C(C(=O)OCc2ccccc2)C(c2ccc(Cl)cc2F)CC(=O)N1 (stereo not given)"
study_system = "G-protein coupled bile acid receptor 1 (Homo sapiens, UniProt Q8TDU6)"
endpoint_result = 2000

[[record]]
compound = "COCCN1C(=O)CC(c2ccc(Cl)cc2)C(C(=O)OCc2ccccc2F)=C1C (stereo not given)"
study_system = "G-protein coupled bile acid receptor 1 (Homo sapiens, UniProt Q8TDU6)"
endpoint_result = 300


# ---- query compound ----
Measured EC50 of COc1ccccc1COC(=O)C1=C(C)N(CC2CCCO2)C(=O)CC1c1ccc(Cl)nc1 (racemic; 78) : 88

* * *

# study-system: G-protein coupled bile acid receptor 1 (Mus musculus, UniProt Q80SS6)
# Sequence (Q80SS6 whole entry): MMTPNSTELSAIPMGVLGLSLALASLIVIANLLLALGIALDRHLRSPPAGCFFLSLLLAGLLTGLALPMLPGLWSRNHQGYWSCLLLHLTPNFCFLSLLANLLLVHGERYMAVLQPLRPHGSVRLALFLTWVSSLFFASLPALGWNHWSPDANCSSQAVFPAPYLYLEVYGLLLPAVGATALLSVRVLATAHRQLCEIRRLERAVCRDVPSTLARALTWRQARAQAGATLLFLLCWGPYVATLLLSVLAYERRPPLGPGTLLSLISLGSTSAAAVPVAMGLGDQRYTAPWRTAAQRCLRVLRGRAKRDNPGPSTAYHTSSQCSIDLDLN
# assay: Agonist activity at mouse TGR5 receptor expressed in HEK293 cells cotransfected with pCMV AC6-TGR5 assessed as activation of intracellular cAMP production incubated overnight by luciferase reporter gene assay
# Format: functional, cell-based
# condition-label: read-out: pEC50 (converted)
Recorded EC50 values for a group of molecules are listed next.

[[record]]
molecule = "COCCN1C(=O)CC(c2ccc(Cl)cc2)C(C(=O)OCc2ccccc2OC(F)(F)F)=C1C (centres undefined)"
experimental_readout = "EC50"
endpoint_result = "10000 nM"


Measured EC50 of C=CCN1C(=O)CC(c2ccc(Cl)cc2)C(C(=O)OCc2ccccc2)=C1C (centres undefined) : 1580 nM

Measured EC50 of COCCN1C(=O)CC(c2ccc(Cl)cc2)C(C(=O)OCc2ccccc2C(F)(F)F)=C1C (centres undefined) : 1260 nM

Measured EC50 of COCCN1C(=O)CC(c2ccc(Cl)cc2)C(C(=O)OCc2cccc(C)c2)=C1C (centres undefined) : 316 nM

* * *

# study-system: G-protein coupled bile acid receptor 1 (Mus musculus)
# assay: Agonist activity at mouse TGR5 receptor expressed in HEK293 cells cotransfected with pCMV AC6-TGR5 assessed as activation of intracellular cAMP production incubated overnight by luciferase reporter gene assay
# Assay type: functional, cell-based
# condition-label: read-out: EC50
experimental-readout: pEC50
Scale explanation: pEC50 corresponds to minus log10 of a concentration expressed in moles per litre.

[[record]]
compound = "COCCN1C(=O)CC(c2ccc(Cl)cc2)C(C(=O)OCc2cccc(F)c2)=C1C (stereo not given)"
experimental_readout = "pEC50"
endpoint_result = 6.10

[[record]]
compound = "COCCCN1C(=O)CC(c2ccc(Cl)cc2)C(C(=O)OCc2ccccc2OC)=C1C (stereo not given)"
experimental_readout = "pEC50"
endpoint_result = 6.14

[[record]]
compound = "CC1=C(C(=O)OCc2ccccc2)C(c2ccc(Cl)cc2)CC(=O)N1CCN(C)C (stereo not given)"
experimental_readout = "pEC50"
endpoint_result = 5.33

[[record]]
compound = "CCN1C(=O)CC(c2ccc(Cl)cc2)C(C(=O)OCc2ccccc2)=C1C (stereo not given)"
experimental_readout = "pEC50"
endpoint_result = 6.05


# ---- query compound ----
Measured pEC50 of COCCN1C(=O)CC(c2ccc(Cl)cc2)C(C(=O)OCc2ccncc2)=C1C (stereo not given) : 6.15

* * *

# study-system: G-protein coupled bile acid receptor 1 (Mus musculus, UniProt Q80SS6)
# assay: Agonist activity at mouse TGR5 receptor expressed in HEK293 cells cotransfected with pCMV AC6-TGR5 assessed as activation of intracellular cAMP production incubated overnight by luciferase reporter gene assay
# Assay type: functional, cell-based
# condition-label: read-out: EC50
experimental-readout: pEC50
Scale explanation: pEC50 corresponds to minus log10 of a concentration expressed in moles per litre.

Measured pEC50 of CC1=C(C(=O)OCc2ccccc2)C(c2ccc(Cl)cc2)CC(=O)N1Cc1ccccc1 (stereo not given) : 6.05

Measured pEC50 of COc1ccccc1COC(=O)C1=C(C)N(Cc2ccco2)C(=O)CC1c1ccc(Cl)cc1 (stereo not given) : 6.80

Measured pEC50 of COC(=O)C1=C(C)N(C)C(=O)CC1c1ccc(Cl)cc1 (stereo not given) : 4.82

Measured pEC50 of O=C1CC(c2ccc(Cl)cc2)C(C(=O)OCc2ccccc2)=CN1 (stereo not given) : 5.07

Measured pEC50 of COCCN1C(=O)CC(c2ccc(Cl)cc2)C(C(=O)OCc2ccccc2Cl)=C1C (stereo not given) : 6.00

* * *

# study-system: G-protein coupled bile acid receptor 1 (Homo sapiens, UniProt Q8TDU6)
# assay: Agonist activity at human TGR5 receptor expressed in HEK293 cells cotransfected with pCMV tag4b-TGR5 assessed as activation of intracellular cAMP production incubated overnight by luciferase reporter gene assay
# Assay type: functional, cell-based
# condition-label: read-out: EC50
experimental-readout: EC50
Don't forget the unit after the number, please.

[[record]]
compound = "CCCCN1C(=O)CC(c2ccc(Cl)cc2)C(C(=O)OCc2ccccc2)=C1C (centres undefined)"
experimental_readout = "EC50"
endpoint_result = "500 nM"

[[record]]
compound = "COc1ccccc1COC(=O)C1=C(C)N(C[C@@H]2CCCO2)C(=O)C[C@H]1c1ccc(Cl)nc1"
experimental_readout = "EC50"
endpoint_result = "35 nM"

[[record]]
compound = "COCCN1C(=O)CC(c2ccc(Cl)cc2)C(C(=O)OCc2ccncc2)=C1C (centres undefined)"
experimental_readout = "EC50"
endpoint_result = "1000 nM"

[[record]]
compound = "CC1=C(C(=O)OCc2ccccc2)C(c2ccc(Cl)cc2)CC(=O)N1Cc1ccccc1 (centres undefined)"
experimental_readout = "EC50"
endpoint_result = "800 nM"

[[record]]
compound = "COCCN1C(=O)CC(c2ccc(Cl)cc2)C(C(=O)OCc2cccc(C(F)(F)F)c2)=C1C (centres undefined)"
experimental_readout = "EC50"
endpoint_result = "400 nM"


Measured EC50 of C#CCN1C(=O)CC(c2ccc(Cl)cc2)C(C(=O)OCc2ccccc2)=C1C (centres undefined) : 700 nM

Measured EC50 of COCCN1C(=O)CC(c2ccc(Cl)cc2)C(C(=O)OCc2ccc(C(=O)OC)cc2)=C1C (centres undefined) : 300 nM

Measured EC50 of COc1ccccc1COC(=O)C1=C(C)N(Cc2ccco2)C(=O)CC1c1ccc(Cl)cc1 (centres undefined) : 260 nM

Measured EC50 of COCCN1C(=O)CC(c2ccc(Cl)cc2)C(C(=O)OCc2ccccc2OC)=C1C (single isomer, unassigned; enantiomer 1) : 120 nM
